Assay explanation: in vivo
Design: species or system mice
Condition set: male, NODSCID 1L2RγKO, mouse, iv, total radioactivity, Kidneys uptake
The compounds listed here are annotated with their tissue uptake at 1 h.
Readout name: tissue uptake at 1 h (%ID/g)

{"columns": ["Compound", "Readout name", "Measured value"],
 "data": [
  ["O=C(O)CCC[C@H](NC(=O)N[C@@H](CCCCNC(=O)[C@H](Cc1c2ccccc2cc2ccccc12)NC(=O)[C@H]1CC[C@H](CNC(=O)CN2CCN(CC(=O)O)CCN(CC(=O)O)CCN(CC(=O)O)CC2)CC1)C(=O)O)C(=O)O [177Lu-HTK03149, metal not drawn]", "tissue uptake at 1 h", 7.67],
  ["COc1ccc(CCCC(=O)NCC(=O)N[C@@H](CCCCNC(=O)CN2CCN(CC(=O)O)CCN(CC(=O)O)CCN(CC(=O)O)CC2)C(=O)NC[C@H]2CC[C@H](C(=O)N[C@@H](Cc3c4ccccc4cc4ccccc34)C(=O)NCCCC[C@H](NC(=O)N[C@@H](CCCC(=O)O)C(=O)O)C(=O)O)CC2)cc1 [177Lu-HTK03170, metal not drawn]", "tissue uptake at 1 h", 13.2],
  ["O=C(O)CCC[C@H](NC(=O)N[C@@H](CCCCNC(=O)[C@H](Cc1c2ccccc2cc2ccccc12)NC(=O)[C@H]1CC[C@H](CNC(=O)[C@H](CCCCNC(=O)CN2CCN(CC(=O)O)CCN(CC(=O)O)CCN(CC(=O)O)CC2)NC(=O)CNC(=O)CCCc2ccc(Cl)cc2)CC1)C(=O)O)C(=O)O [177Lu-HTK03153, metal not drawn]", "tissue uptake at 1 h", 10]
]}

---

The compounds listed here are annotated with their tissue uptake at 1 h.
Assay explanation: in vivo
Parameters: species or system mice
Condition set: male, NODSCID 1L2RγKO, mouse, iv, total radioactivity, Salivary uptake

{"columns": ["Compound", "tissue uptake at 1 h (%ID/g)"],
 "data": [
  ["COc1ccc(CCCC(=O)NCC(=O)N[C@@H](CCCCNC(=O)CN2CCN(CC(=O)O)CCN(CC(=O)O)CCN(CC(=O)O)CC2)C(=O)NC[C@H]2CC[C@H](C(=O)N[C@@H](Cc3c4ccccc4cc4ccccc34)C(=O)NCCCC[C@H](NC(=O)N[C@@H](CCCC(=O)O)C(=O)O)C(=O)O)CC2)cc1 [177Lu-HTK03170, metal not drawn]", 2.43],
  ["COc1ccc(CCCC(=O)NCC(=O)N[C@@H](CCCCNC(=O)CN2CCN(CC(=O)O)CCN(CC(=O)O)CCN(CC(=O)O)CC2)C(=O)NC[C@H]2CC[C@H](C(=O)N[C@@H](Cc3c4ccccc4cc4ccccc34)C(=O)NCCCC[C@H](NC(=O)N[C@@H](CSCC(=O)O)C(=O)O)C(=O)O)CC2)cc1 [177Lu-HTK04048, metal not drawn]", 2.7],
  ["O=C(O)CCC[C@H](NC(=O)N[C@@H](CCCCNC(=O)[C@H](Cc1c2ccccc2cc2ccccc12)NC(=O)[C@H]1CC[C@H](CNC(=O)CN2CCN(CC(=O)O)CCN(CC(=O)O)CCN(CC(=O)O)CC2)CC1)C(=O)O)C(=O)O [177Lu-HTK03149, metal not drawn]", 0.23],
  ["COc1ccc(CCCC(=O)NCC(=O)N[C@@H](CCCCNC(=O)CN2CCN(CC(=O)O)CCN(CC(=O)O)CCN(CC(=O)O)CC2)C(=O)NC[C@H]2CC[C@H](C(=O)N[C@@H](Cc3c4ccccc4cc4ccccc34)C(=O)NCCCC[C@H](NC(=O)N[C@@H](COCC(=O)O)C(=O)O)C(=O)O)CC2)cc1 [177Lu-HTK04028, metal not drawn]", 2.55],
  ["O=C(O)CCC[C@H](NC(=O)N[C@@H](CCCCNC(=O)[C@H](Cc1c2ccccc2cc2ccccc12)NC(=O)[C@H]1CC[C@H](CNC(=O)[C@H](CCCCNC(=O)CN2CCN(CC(=O)O)CCN(CC(=O)O)CCN(CC(=O)O)CC2)NC(=O)CNC(=O)CCCc2ccc(Cl)cc2)CC1)C(=O)O)C(=O)O [177Lu-HTK03153, metal not drawn]", 3.56]
]}
